assayed-target: Cyclin-G-associated kinase (Homo sapiens, UniProt O14976)
Sequence (O14976 whole entry): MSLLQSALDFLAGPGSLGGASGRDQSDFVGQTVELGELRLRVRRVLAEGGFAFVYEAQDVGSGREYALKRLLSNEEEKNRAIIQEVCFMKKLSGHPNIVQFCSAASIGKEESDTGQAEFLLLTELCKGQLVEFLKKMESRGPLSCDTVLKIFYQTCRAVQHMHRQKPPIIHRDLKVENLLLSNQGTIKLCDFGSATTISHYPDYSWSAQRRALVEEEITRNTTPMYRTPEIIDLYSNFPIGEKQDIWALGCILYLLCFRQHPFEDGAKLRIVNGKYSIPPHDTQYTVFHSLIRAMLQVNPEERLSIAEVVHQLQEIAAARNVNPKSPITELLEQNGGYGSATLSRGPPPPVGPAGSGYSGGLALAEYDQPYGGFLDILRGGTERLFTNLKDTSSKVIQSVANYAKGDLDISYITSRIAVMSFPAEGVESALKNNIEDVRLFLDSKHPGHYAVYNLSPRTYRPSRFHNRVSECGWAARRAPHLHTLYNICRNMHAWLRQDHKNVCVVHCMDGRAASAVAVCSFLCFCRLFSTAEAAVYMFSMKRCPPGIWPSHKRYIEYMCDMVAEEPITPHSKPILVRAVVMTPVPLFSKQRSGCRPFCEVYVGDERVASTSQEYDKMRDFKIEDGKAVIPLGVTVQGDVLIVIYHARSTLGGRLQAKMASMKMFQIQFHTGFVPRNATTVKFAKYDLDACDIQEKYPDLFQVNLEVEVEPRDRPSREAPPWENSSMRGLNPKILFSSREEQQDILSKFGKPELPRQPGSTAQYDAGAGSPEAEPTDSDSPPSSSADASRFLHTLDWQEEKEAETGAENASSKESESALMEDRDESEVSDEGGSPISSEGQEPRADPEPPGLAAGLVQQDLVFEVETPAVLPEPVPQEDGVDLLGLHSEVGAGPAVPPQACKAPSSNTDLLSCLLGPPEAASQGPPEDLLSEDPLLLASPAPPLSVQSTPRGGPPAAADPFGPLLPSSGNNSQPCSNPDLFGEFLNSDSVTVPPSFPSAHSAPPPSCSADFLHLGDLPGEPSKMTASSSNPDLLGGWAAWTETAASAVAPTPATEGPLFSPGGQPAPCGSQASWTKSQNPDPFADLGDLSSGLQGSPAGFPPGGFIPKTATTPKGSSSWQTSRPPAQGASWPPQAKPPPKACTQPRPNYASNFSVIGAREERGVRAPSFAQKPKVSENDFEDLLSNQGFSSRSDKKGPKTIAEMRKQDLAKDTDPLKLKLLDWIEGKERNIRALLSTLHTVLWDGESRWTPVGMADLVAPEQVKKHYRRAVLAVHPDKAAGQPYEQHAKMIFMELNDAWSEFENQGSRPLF
measurement-protocol: Inhibition of tracer 222 binding to recombinant human GST-tagged GAK (1 to 329 residues) expressed in insect cells incubated for 1 hr by Lanthascreen assay
pIC50: −log10 of the molar value.
Task for the reader: assign each of the following compounds its reported pIC50.

query: Quick one: pIC50 for C[C@@H]1CN(c2snc3cc(/C=C/c4ccccc4)cnc23)C[C@H](C)O1 ?
result: < 5.48

query: Endpoint output: pIC50 of COc1cc(-c2cnc3c(N4C[C@@H](C)O[C@@H](C)C4)snc3c2)ccc1C(=O)Nc1ccccc1 . Value?
result: < 6.43

query: Given COc1cc(-c2cnc3c(N4C[C@@H](C)O[C@@H](C)C4)snc3c2)ccc1N , state its recorded pIC50.
result: 7.40

query: # lookup: pIC50 of C[C@@H]1CN(c2snc3cc(C#Cc4ccccc4)cnc23)C[C@H](C)O1
result: < 5.00

query: If you can, please state the reported pIC50 value of C[C@@H]1CN(c2snc3ccc(-c4ccc(C(F)(F)F)cc4)nc23)C[C@H](C)O1 .
result: < 6.43

query: Item under review: COc1ccc(-c2cnc3c(N4C[C@@H](C)O[C@@H](C)C4)snc3c2)cn1 . Reported pIC50?
result: < 5.48
